Data origin: the supplement of paper PMC9112550

# Test system: Escherichia coli TOP10;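 note: peptides expressed intracellularly from a pBAD plasmid library in pooled LB shake-flask culture, induced with 0.3% L-arabinose, DNA abundance read by NGS, three biological replicates, DESeq2 with apeglm shrinkage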
# assay text: shrunken log2 fold change of peptide-encoding DNA abundance (4.5 h post-induction vs induction); higher = less antimicrobial activity (less host growth inhibition)
# cond: time post-induction: 4.5 h; library: site-saturation at positions 5, 18, 19, 20
Label label 1 when shrunken log2 fold change >= 0.01; otherwise label 0.

Prompt: Would you say RRIRWRPPRLPRPRPRPANCPRP shows shrunken log2 fold change at minimum 0.01?
Response: label 1

Prompt: Same read-out for RRIRCRPPRLPRPRPRPQKQPRP ?
Response: label 1

Prompt: Same read-out for RRIRVRPPRLPRPRPRPLGKPRP ?
Response: label 1

Prompt: Same read-out for RRIRLRPPRLPRPRPRPPRRPRP ?
Response: label 1

Prompt: Same read-out for RRIRRRPPRLPRPRPRPAKAPRP ?
Response: label 1

Prompt: Same read-out for RRIRRRPPRLPRPRPRPAAEPRP ?
Response: label 1

Prompt: Same read-out for RRIRPRPPRLPRPRPRPWHAPRP ?
Response: label 0

Prompt: Same read-out for RRIRQRPPRLPRPRPRPIHRPRP ?
Response: label 0

Prompt: Same read-out for RRIRSRPPRLPRPRPRPKCQPRP ?
Response: label 1

Prompt: Same read-out for RRIRFRPPRLPRPRPRPWFVPRP ?
Response: label 0

Prompt: Same read-out for RRIRWRPPRLPRPRPRPEPIPRP ?
Response: label 1

Prompt: Same read-out for RRIRMRPPRLPRPRPRPQIHPRP ?
Response: label 1

Prompt: Same read-out for RRIRNRPPRLPRPRPRPWCNPRP ?
Response: label 0

Prompt: Same read-out for RRIRFRPPRLPRPRPRPHNQPRP ?
Response: label 0

Prompt: Same read-out for RRIRERPPRLPRPRPRPCIGPRP ?
Response: label 0
